# tested_target: GLEPP-1 (Homo sapiens, UniProt Q16827)
# Construct: using the catalytic core of a human recombinant PTP as the enzyme; made in house
# Sequence (Q16827 938-1195 limits assumed): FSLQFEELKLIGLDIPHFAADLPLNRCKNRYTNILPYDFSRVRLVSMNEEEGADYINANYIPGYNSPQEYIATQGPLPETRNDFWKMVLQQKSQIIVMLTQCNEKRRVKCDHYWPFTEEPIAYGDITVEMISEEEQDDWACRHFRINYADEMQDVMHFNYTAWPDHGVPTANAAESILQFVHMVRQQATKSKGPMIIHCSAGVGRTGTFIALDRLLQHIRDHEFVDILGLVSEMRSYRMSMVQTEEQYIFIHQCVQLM
# run_description: PTP Enzyme Assay (DiFMUP), GLEPP-1
# Assay type: biochemical
value_kind: pIC50
In plain terms, pIC50 is the concentration in mol/L turned into minus its base-10 logarithm.

Q: Determine its reported pIC50: `CCCCCCN(Cc1ccc(C#Cc2ccccc2)cc1)c1ccc(F)c(C(=O)O)c1`
Ans: 6.07

* * *

# tested_target: SHP-1 (Homo sapiens, UniProt P29350)
# Construct: using the catalytic core of a human recombinant PTP as the enzyme
# Sequence (P29350 244-515 limits assumed): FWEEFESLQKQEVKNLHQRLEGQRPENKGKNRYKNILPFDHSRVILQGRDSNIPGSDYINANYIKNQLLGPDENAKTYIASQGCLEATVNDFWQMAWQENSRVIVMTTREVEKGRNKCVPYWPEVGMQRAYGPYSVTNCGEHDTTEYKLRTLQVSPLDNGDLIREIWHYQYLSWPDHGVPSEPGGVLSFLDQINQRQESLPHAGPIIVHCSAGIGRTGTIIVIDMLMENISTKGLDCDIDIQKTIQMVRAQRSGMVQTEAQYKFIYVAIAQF
# run_description: PTP Enzyme Assay (DiFMUP), SHP-1
# experimental_setup: 20 μM DiFMUP, catalytic core of human recombinant PTP; read-out: IC50 value in respect of SHP-1
value_kind: IC50 (nM)
The figure you give is taken to be in nM; do not add the unit.

Q: Determine its reported IC50: `CCCCc1ccc(C#Cc2ccc(CN(Cc3ccc(OCC(=O)O)cc3)S(=O)(=O)/C=C/c3ccccc3)cc2)cc1`
Ans: 820
